Collected optical density values appear next to each entry.
Biological target: T1, Goat anti-Human Kappa
T1 construct: Positive control of the ELISA; also called biotinylated goat anti-human kappa light chain
Assay: ELISA, positive control; further: test concentration or dose not given here
Reply numerically in OD, unit not repeated.

Some entries whose results are on file:
Input line: Entry under review: 371_F08 (antibody, V domains shown) VH: EVQLLESGGGLVQPGGSLRLSCAASGFTFDDYSMNWVRQAPGKGLEWVSGINYNGGYTGYADSVKGRFTISRDNSKNTLYLQMNSLRAEDTAVYYCARSANWHDTALDYWGQGTLVTVSS VL: DIQMTQSPSSLSASVGDRVTITCRASQSIVSYVNWYQQKPGKAPKLVIYAATSRHSGVPSRFSGSGSGTDFTLTISSLQPEDFATYYCQQSYESPLTFGGGTKVEIK . Reported optical density?
Output line: 3.43

Input line: What does the data say about its optical density? Entry: 367_E01 (antibody, V domains shown) VH: EVQLLESGGGLVQPGGSLRLSCAASGFTFSSYGMNWVRQAPGKGLEWVAGINYNGGYKSYADSVKGRFTISRDNSKNTLYLQMNSLRAEDTAVYYCARSANWHDTALDYWGQGTLVTVSS VL: DIQMTQSPSSLSASVGDRVTITCRASQSILSYVNWYQQKPGKAPKLLIYATTSRASGVPSRFSGSGSGTDFTLTISSLQPEDFATYYCQQSYDLPLTFGGGTKVEIK
Output line: 3.61

Input line: Quick check: optical density of 369_E12 (antibody, V domains shown) VH: EVQLLESGGGLVQPGGSLRLSCAASGFTFSSYGMHWVRQAPGKGLEWVASINYNSGYTSYADSVKGRFTISRDNSKNTLYLQMNSLRAEDTAVYYCARSANWHDTALDYWGQGTLVTVSS VL: DIQMTQSPSSLSASVGDRVTITCRASQSIISYLNWYQQKPGKAPKLLIYAATSRASGVPSRFSGSGSGTDFTLTISSLQPEDFATYYCQQSYESPLTFGGGTKVEIK ?
Output line: 3.67

Input line: // lookup optical density for 368_E02 (antibody, V domains shown) VH: EVQLLESGGGLVQPGGSLRLSCAASGFTFDSYSMNWVRQAPGKGLEWVAGINYNSGYTSYADSVKGRFTISRDNSKNTLYLQMNSLRAEDTAVYYCARSANWHDTHLDYWGQGTLVTVSS VL: DIQMTQSPSSLSASVGDRVTITCRASQSILTYLNWYQQKPGKAPKLLIYAATSRASGVPSRFSGSGSGTDFTLTISSLQPEDFATYYCQQSYSSPLTFGGGTKVEIK
Output line: 3.68

***
Input line: Requested read-out: optical density. Entry: 373_H01 (antibody, V domains shown) VH: EVQLLESGGGLVQPGGSLRLSCAASGFTFDSYSMNWVRQAPGKGLEWVANINYNGGYTGYADSVKGRFTISRDNSKNTLYLQMNSLRAEDTAVYYCARSANWHDTALDYWGQGTLVTVSS VL: DIQMTQSPSSLSASVGDRVTITCRASQSILSYLNWYQQKPGKAPKLVIYAATSRASGVPSRFSGSGSGTDFTLTISSLQPEDFATYYCQQSYDNPLTFGGGTKVEIK
Output line: 3.12

Input line: Entry under review: 371_F01 (antibody, V domains shown) VH: EVQLLESGGGLVQPGGSLRLSCAASGFTFSSYSMNWVRQAPGKGLEWVAGINYNGGYTGYADSVKGRFTISRDNSKNTLYLQMNSLRAEDTAVYYCARSANWHDTALDYWGQGTLVTVSS VL: DIQMTQSPSSLSASVGDRVTITCRASQSILTYVNWYQQKPGKAPKLVIYAATSLASGVPSRFSGSGSGTDFTLTISSLQPEDFATYYCQQSYNNPLTFGGGTKVEIK . Reported optical density?
Output line: 3.68

Input line: Fill in the blank: the reported optical density of 367_F03 (antibody, V domains shown) VH: EVQLLESGGGLVQPGGSLRLSCAASGFTFSSYSMNWVRQAPGKGLEWVAGINYNSGYKSYADSVKGRFTISRDNSKNTLYLQMNSLRAEDTAVYYCARSANWHDTALDYWGQGTLVTVSS VL: DIQMTQSPSSLSASVGDRVTITCRASQSILSYVNWYQQKPGKAPKLVIYAATSLASGVPSRFSGSGSGTDFTLTISSLQPEDFATYYCQQSDDTPLTFGGGTKVEIK is ____.
Output line: 3.45

Input line: Given the binder 370_F10 (antibody, V domains shown) VH: EVQLLESGGGLVQPGGSLRLSCAASGFTFSSYSMNWVRQAPGKGLEWVAGINYNGGYTSYADSVKGRFTISRDNSKNTLYLQMNSLRAEDTAVYYCARSANWHDTALDYWGQGTLVTVSS VL: DIQMTQSPSSLSASVGDRVTITCRASQSIVSYLNWYQQKPGKAPKLVIYAATSRASGVPSRFSGSGSGTDFTLTISSLQPEDFATYYCQQSYNSPLTFGGGTKVEIK , what is its reported optical density?
Output line: 3.64

Input line: Which optical density value belongs to 373_E07 (antibody, V domains shown) VH: EVQLLESGGGLVQPGGSLRLSCAASGFTFSSYGMNWVRQAPGKGLEWVANINYNGGYTSYADSVKGRFTISRDNSKNTLYLQMNSLRAEDTAVYYCARSANWHDTALDYWGQGTLVTVSS VL: DIQMTQSPSSLSASVGDRVTITCRASQSILTYVNWYQQKPGKAPKLLIYAATSLASGVPSRFSGSGSGTDFTLTISSLQPEDFATYYCQQSYETPLTFGGGTKVEIK ?
Output line: 3.23

Input line: Fill in: optical density of 373_A08 (antibody, V domains shown) VH: EVQLLESGGGLVQPGGSLRLSCAASGFTFDSYGMNWVRQAPGKGLEWVSNINYNGGYTGYADSVKGRFTISRDNSKNTLYLQMNSLRAEDTAVYYCARSANWHDTALDYWGQGTLVTVSS VL: DIQMTQSPSSLSASVGDRVTITCRASQSIVSYVNWYQQKPGKAPKLLIYAATSLASGVPSRFSGSGSGTDFTLTISSLQPEDFATYYCQQSYSLPLTFGGGTKVEIK is ___
Output line: 3.11
